# System: T-Rex 293 cell line SC3 cells lacking increased expression of androgen receptor protein
# protocol_details: Cellular growth inhibition, T-Rex 293 SC3 cells without doxycycline, CellTiter-Glo
# Type: cell-based
# measurement_parameters: 72 h, T-Rex 293 SC3 cells not exposed to doxycycline, CellTiter-Glo 2.0
As shown below, each of these compounds has a reported GI50 value.

Below, each entry is followed by its recorded GI50 result.
Cc1sc2c(c1C)C(c1ccc(-c3nnc(OC4CCN(c5ncc(C(=O)N[C@H]6C(C)(C)[C@H](Oc7ccc(C#N)c(Cl)c7)C6(C)C)cn5)CC4)s3)cc1)=N[C@@H](Cc1ncco1)c1nnc(C)n1-2    < 500 nM
Cc1sc2c(c1C)C(c1cccc(OCCOCCOC3CCN(c4ncc(C(=O)N[C@H]5C(C)(C)[C@H](Oc6ccc(C#N)c(Cl)c6)C5(C)C)cn4)CC3)c1)=N[C@@H](CC(=O)O)c1nnc(C)n1-2    > 3000 nM
CCNC(=O)C[C@@H]1N=C(c2ccc(CN3CC4CN(c5ncc(C(=O)N[C@H]6C(C)(C)[C@H](Cc7ccc(C#N)c(Cl)c7)C6(C)C)cn5)CC4C3)cc2)c2c(sc(C)c2C)-n2c(C)nnc21 (stereo partly drawn)    500 to 1500 nM
Cc1sc2c(c1C)C(c1ccc(C#CC3CC4(C3)CN(c3ncc(C(=O)N[C@H]5C(C)(C)[C@H](Oc6ccc(C#N)c(Cl)c6)C5(C)C)cn3)C4)cc1)=N[C@@H](C)c1nnc(C)n1-2    < 500 nM
CCNC(=O)C[C@@H]1N=C(c2ccc(N(C)CCN3CCN(c4ncc(C(=O)N[C@H]5C(C)(C)[C@H](Oc6ccc(C#N)c(Cl)c6)C5(C)C)cn4)CC3)cc2)c2c(sc(C)c2C)-n2c(C)nnc21    < 500 nM

Shifting focus to the compound that follows.
INPUT: Entry Cc1sc2c(c1C)C(c1ccc(CC(=O)N3CCC(c4ncc(C(=O)N[C@H]5C(C)(C)[C@H](Oc6ccc(C#N)c(Cl)c6)C5(C)C)cn4)CC3)cc1)=N[C@H](Cc1ncco1)c1nnc(C)n1-2 has what GI50?
OUTPUT: > 3000 nM

Source of measurements: patent US20260062422A1
